Data origin: paper PMC12080252

assay.remarks: Chronic reproduction toxicity test (OECD 211) with passive dosing
Format: in vivo, Daphnia magna
condition.context: Daphnia magna, in vivo, other: waterborne exposure by passive dosing from PDMS disks; 21-day test, 0.8 µg/L (Fig. S8); read-out: % offspring mortality of total offspring
outcome.measure: mortality at 21 days, 0.8 µg/L (%)
Kindly answer with a numeric value in %, unit omitted.

Find the measured mortality at 21 days, 0.8 µg/L of c1ccc2c(c1)ccc1oc3ccccc3c12 [BNF, benzo[b]naphtho[1,2-d]furan] and report it.
0

----------
System: Daphnia magna
assay.remarks: Bioaccumulation test (growth, uptake, depuration; adapted from OECD 305) with passive dosing
Format: in vivo
condition.context: estimated from k2, eq 6
outcome.measure: t95 (time to reach 95% steady-state) (h)
Kindly answer with a numeric value in h, unit omitted.

c1ccc2c(c1)ccc1[nH]c3ccccc3c12 [BCRB, 7H-benzo[c]carbazole]; 27
c1ccc2c(c1)ccc1oc3ccc4ccccc4c3c12 [DNF, dinaphtho[2,1-b:1′,2′-d]furan]; 232
c1ccc2c(c1)ccc1sc3ccccc3c12 [BNT, benzo[b]naphtho[1,2-d]thiophene]; 71

Could you now consider this next molecule?
Find the measured t95 (time to reach 95% steady-state) of c1ccc2c(c1)ccc1oc3ccccc3c12 [BNF, benzo[b]naphtho[1,2-d]furan] and report it.
120

----------
assay.remarks: Chronic reproduction toxicity test (OECD 211) with passive dosing
Type: in vivo, Daphnia magna
condition.context: Daphnia magna, in vivo, other: waterborne exposure by passive dosing from PDMS disks; 21-day test, 1.16 µg/L (Fig. S8); read-out: % offspring mortality of total offspring
outcome.measure: mortality at 21 days, 1.16 µg/L

Find the measured mortality at 21 days, 1.16 µg/L of c1ccc2c(c1)ccc1oc3ccc4ccccc4c3c12 [DNF, dinaphtho[2,1-b:1′,2′-d]furan] and report it.
11.8%

----------
assay.remarks: Chronic reproduction toxicity test (OECD 211) with passive dosing
Type: in vivo, Daphnia magna
condition.context: Daphnia magna, in vivo, other: waterborne exposure by passive dosing from PDMS disks; 21-day test, 1.44 µg/L (Fig. S8); read-out: % offspring mortality of total offspring
outcome.measure: mortality at 21 days, 1.44 µg/L (%)
Kindly answer with a numeric value in %, unit omitted.

Find the measured mortality at 21 days, 1.44 µg/L of c1ccc2c(c1)ccc1oc3ccc4ccccc4c3c12 [DNF, dinaphtho[2,1-b:1′,2′-d]furan] and report it.
42.2

----------
assay.remarks: Chronic reproduction toxicity test (OECD 211) with passive dosing
Assay type: in vivo, Daphnia magna
condition.context: Daphnia magna, in vivo, other: waterborne exposure by passive dosing from PDMS disks; 21-day test, 4.1 µg/L (Fig. S8); read-out: % offspring mortality of total offspring
outcome.measure: mortality at 21 days, 4.1 µg/L (%)
Kindly answer with a numeric value in %, unit omitted.

Find the measured mortality at 21 days, 4.1 µg/L of c1ccc2c(c1)ccc1[nH]c3ccccc3c12 [BCRB, 7H-benzo[c]carbazole] and report it.
3.3

----------
assay.remarks: Chronic reproduction toxicity test (OECD 211) with passive dosing
Type: in vivo, Daphnia magna
condition.context: Daphnia magna, in vivo, other: waterborne exposure by passive dosing from PDMS disks; 21-day test, 12.00 µg/L (Fig. S8); read-out: % offspring mortality of total offspring
outcome.measure: mortality at 21 days, 12 µg/L (%)
Kindly answer with a numeric value in %, unit omitted.

Find the measured mortality at 21 days, 12 µg/L of c1ccc2c(c1)ccc1sc3ccccc3c12 [BNT, benzo[b]naphtho[1,2-d]thiophene] and report it.
28

----------
Test system: Daphnia magna
assay.remarks: Bioaccumulation test (growth, uptake, depuration; adapted from OECD 305) with passive dosing
Format: in vivo
condition.context: slope of ln CD vs time
Recorded measurements of k2 (depuration rate constant), one per entry
Kindly answer with a numeric value in h⁻¹, unit omitted.

Solved entries (count: 3):
c1ccc2c(c1)ccc1[nH]c3ccccc3c12 [BCRB, 7H-benzo[c]carbazole]; 0.111
c1ccc2c(c1)ccc1oc3ccc4ccccc4c3c12 [DNF, dinaphtho[2,1-b:1′,2′-d]furan]; 0.0129
c1ccc2c(c1)ccc1oc3ccccc3c12 [BNF, benzo[b]naphtho[1,2-d]furan]; 0.025

Could you now consider this next compound?
Find the measured k2 (depuration rate constant) of c1ccc2c(c1)ccc1sc3ccccc3c12 [BNT, benzo[b]naphtho[1,2-d]thiophene] and report it.
0.042

----------
assay.remarks: Chronic reproduction toxicity test (OECD 211) with passive dosing
Format: in vivo, Daphnia magna
condition.context: Daphnia magna, in vivo, other: waterborne exposure by passive dosing from PDMS disks; 21-day test, 0.39 µg/L (Fig. S8); read-out: % offspring mortality of total offspring
outcome.measure: mortality at 21 days, 0.39 µg/L (%)
Kindly answer with a numeric value in %, unit omitted.

Find the measured mortality at 21 days, 0.39 µg/L of c1ccc2c(c1)ccc1oc3ccc4ccccc4c3c12 [DNF, dinaphtho[2,1-b:1′,2′-d]furan] and report it.
5.1

----------
assay.remarks: Chronic reproduction toxicity test (OECD 211) with passive dosing
Format: in vivo, Daphnia magna
condition.context: Daphnia magna, in vivo, other: waterborne exposure by passive dosing from PDMS disks; 21-day test, 0.25 µg/L (Fig. S8); read-out: % offspring mortality of total offspring
outcome.measure: mortality at 21 days, 0.25 µg/L (%)
Kindly answer with a numeric value in %, unit omitted.

Find the measured mortality at 21 days, 0.25 µg/L of c1ccc2c(c1)ccc1sc3ccccc3c12 [BNT, benzo[b]naphtho[1,2-d]thiophene] and report it.
11.1

----------
assay.remarks: Chronic reproduction toxicity test (OECD 211) with passive dosing
Type: in vivo, Daphnia magna
condition.context: Daphnia magna, in vivo, other: waterborne exposure by passive dosing from PDMS disks; 21-day test, 1.30 µg/L (Fig. S8); read-out: % offspring mortality of total offspring
outcome.measure: mortality at 21 days, 1.3 µg/L (%)
Kindly answer with a numeric value in %, unit omitted.

Find the measured mortality at 21 days, 1.3 µg/L of c1ccc2c(c1)ccc1oc3ccc4ccccc4c3c12 [DNF, dinaphtho[2,1-b:1′,2′-d]furan] and report it.
16.7

----------
Recorded measurements of half-life, one per entry
assay.remarks: Bioaccumulation test (growth, uptake, depuration; adapted from OECD 305) with passive dosing
Assay type: in vivo, Daphnia magna
condition.context: whole body (homogenate, wet weight), t50 (time to reach 50% steady-state / depuration half-life), estimated from k2, eq 5
Kindly answer with a numeric value in h, unit omitted.

Solved entries (count: 2):
c1ccc2c(c1)ccc1oc3ccccc3c12 [BNF, benzo[b]naphtho[1,2-d]furan]; 28
c1ccc2c(c1)ccc1[nH]c3ccccc3c12 [BCRB, 7H-benzo[c]carbazole]; 6

Find the measured half-life of c1ccc2c(c1)ccc1oc3ccc4ccccc4c3c12 [DNF, dinaphtho[2,1-b:1′,2′-d]furan] and report it.
54
